MEASURED TARGET: Protein cereblon/Estrogen receptor (Homo sapiens, UniProt P03372+Q96SW2)
Sequence (P03372 whole entry, looked up): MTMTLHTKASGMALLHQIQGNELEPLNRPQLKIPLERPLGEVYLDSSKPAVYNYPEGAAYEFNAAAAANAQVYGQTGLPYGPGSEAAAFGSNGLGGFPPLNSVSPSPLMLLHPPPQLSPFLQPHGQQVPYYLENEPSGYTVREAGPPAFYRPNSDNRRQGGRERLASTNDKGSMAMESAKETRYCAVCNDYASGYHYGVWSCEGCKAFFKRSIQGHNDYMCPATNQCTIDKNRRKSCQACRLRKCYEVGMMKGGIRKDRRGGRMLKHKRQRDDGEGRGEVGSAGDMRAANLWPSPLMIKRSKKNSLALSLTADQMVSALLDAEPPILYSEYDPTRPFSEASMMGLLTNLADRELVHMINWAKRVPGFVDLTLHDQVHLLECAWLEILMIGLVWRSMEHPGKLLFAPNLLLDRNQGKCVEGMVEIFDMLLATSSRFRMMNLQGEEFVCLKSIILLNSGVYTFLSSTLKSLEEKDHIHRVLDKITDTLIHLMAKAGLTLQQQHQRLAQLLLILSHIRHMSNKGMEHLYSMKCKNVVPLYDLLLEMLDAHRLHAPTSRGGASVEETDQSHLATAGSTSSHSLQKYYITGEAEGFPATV
Sequence (Q96SW2 whole entry, looked up): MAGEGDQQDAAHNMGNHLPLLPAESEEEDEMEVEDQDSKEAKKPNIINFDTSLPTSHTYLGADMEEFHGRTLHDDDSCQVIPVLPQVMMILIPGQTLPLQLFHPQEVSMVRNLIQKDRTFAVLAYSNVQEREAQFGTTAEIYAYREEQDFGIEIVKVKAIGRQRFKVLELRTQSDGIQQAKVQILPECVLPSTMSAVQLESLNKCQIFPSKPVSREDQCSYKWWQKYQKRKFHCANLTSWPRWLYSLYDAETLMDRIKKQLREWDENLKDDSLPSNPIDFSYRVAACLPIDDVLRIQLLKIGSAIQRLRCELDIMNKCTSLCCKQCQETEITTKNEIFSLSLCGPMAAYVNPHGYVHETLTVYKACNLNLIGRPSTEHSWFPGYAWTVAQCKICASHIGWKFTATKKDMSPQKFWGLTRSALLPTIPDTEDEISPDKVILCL
ASSAY NAME: PROTAC activity at CRBN/ERalpha in human MCF7 cells assessed as reduction in ERalpha protein level measured after 12 hrs by Western blot analysis relative to control
Assay type: cell-based
Field: Emax. Provide a value for each of the compounds that follow.
Answers are plain numbers, in %.

O=C1CC[C@H](N2Cc3c(ccc4c3OCC43CCN(CC(=O)N4CCCC5(CCN(c6ccc([C@@H]7c8ccc(O)cc8CC[C@@H]7c7ccccc7)cc6)CC5)C4)CC3)C2=O)C(=O)N1    99
O=C1CC[C@H](N2Cc3c(ccc4c3OCC43CCN(C(=O)CN4CCC5(CCN(c6ccc([C@@H]7c8ccc(O)cc8CC[C@@H]7c7ccccc7)cc6)CC5)C4)CC3)C2=O)C(=O)N1    107
O=C1CC[C@H](N2Cc3c(ccc4c3OCC43CCN(CC4CCN(c5ccc([C@@H]6c7ccc(O)cc7CC[C@@H]6c6ccccc6)cc5)CC4)CC3)C2=O)C(=O)N1    37
O=C1CC[C@H](N2Cc3c(ccc4c3OCC43CCN(CC4CC5(C4)CN(c4ccc([C@@H]6c7ccc(O)cc7CC[C@@H]6c6ccccc6)cc4)C5)CC3)C2=O)C(=O)N1    81
O=C1CC[C@H](N2Cc3c(ccc4c3OCC43CCN(CC4CCC5(CC4)CCN(c4ccc([C@@H]6c7ccc(O)cc7CC[C@@H]6c6ccccc6)cc4)CC5)CC3)C2=O)C(=O)N1    99

The following compounds each have a reported value; give each one's Emax.
1. O=C1CC[C@H](N2Cc3c(ccc4c3OCC43CCN(CCCC4CCN(c5ccc([C@@H]6c7ccc(O)cc7CC[C@@H]6c6ccccc6)cc5)CC4)CC3)C2=O)C(=O)N1
2. O=C1CC[C@H](N2Cc3c(ccc4c3OCC43CCN(C(=O)CN4CCC5(CC4)CN(c4ccc([C@@H]6c7ccc(O)cc7CC[C@@H]6c6ccccc6)cc4)C5)CC3)C2=O)C(=O)N1
3. O=C1CC[C@H](N2Cc3c(ccc4c3OCC43CCN(CC(=O)N4CCC5(CCN(c6ccc([C@@H]7c8ccc(O)cc8CC[C@@H]7c7ccccc7)cc6)CC5)C4)CC3)C2=O)C(=O)N1
4. O=C1CC[C@H](N2Cc3c(ccc4c3OCC43CCN(CC(=O)N4CCC5(CC4)CCN(c4ccc([C@@H]6c7ccc(O)cc7CC[C@@H]6c6ccccc6)cc4)CC5)CC3)C2=O)C(=O)N1
5. O=C1CC[C@H](N2Cc3c(ccc4c3OCC43CCN(C(=O)CC4CCN(c5ccc([C@@H]6c7ccc(O)cc7CC[C@@H]6c6ccccc6)cc5)CC4)CC3)C2=O)C(=O)N1
6. O=C1CC[C@H](N2Cc3c(ccc4c3OCC43CCN(CCCCCC4CCN(c5ccc([C@@H]6c7ccc(O)cc7CC[C@@H]6c6ccccc6)cc5)CC4)CC3)C2=O)C(=O)N1

1: 98; 2: 96; 3: 100; 4: 105; 5: 86; 6: 105

Give Emax for each listed item.
1. O=C1CC[C@H](N2Cc3c(ccc4c3OCC43CCN(CC4CCC5(CC4)CN(c4ccc([C@@H]6c7ccc(O)cc7CC[C@@H]6c6ccccc6)cc4)C5)CC3)C2=O)C(=O)N1
2. O=C1CC[C@H](N2Cc3c(ccc4c3OCC43CCN(C(=O)CCCC4CCN(c5ccc([C@@H]6c7ccc(O)cc7CC[C@@H]6c6ccccc6)cc5)CC4)CC3)C2=O)C(=O)N1
3. O=C1CC[C@H](N2Cc3c(ccc4c3OCC43CCN(CC(=O)N4CC5(C4)CN(c4ccc([C@@H]6c7ccc(O)cc7CC[C@@H]6c6ccccc6)cc4)C5)CC3)C2=O)C(=O)N1

95
95
99

For the compound O=C1CC[C@H](N2Cc3c(ccc4c3OCC43CCN(CC(=O)N4CC5(CCN(c6ccc([C@@H]7c8ccc(O)cc8CC[C@@H]7c7ccccc7)cc6)CC5)C4)CC3)C2=O)C(=O)N1 , report Emax.
102

src = ChEMBL document CHEMBL6083286
